Origin of measurements: patent US20260364080A1

# experimental-target: recombinant human Wee1A kinase (Homo sapiens, UniProt P30291)
# Construct: full length Wee1 kinase was expressed by baculovirus in insect cells; purchased Invitrogen PV3817; host or cells: insect cells (baculovirus)
# test-protocol: Wee1A kinase binding assay (LanthaScreen Eu time-resolved FRET)
# experimental-conditions: 30 nM tracer 178, 5 nM Wee1A kinase, 2 nM Eu-labeled antibody; 60 minutes at room temperature; read-out: Wee1A kinase Binding IC50
Here the recorded IC50 is given for each entry.

chemical-structure	IC50
CN1CCC(Oc2cccc(-n3c4nc(Nc5ccc6c(ccn6C)c5)ncc4c(=O)n3C)n2)CC1	< 10 nM
CCn1c(=O)c2cnc(Nc3ccc4c(c3)ncn4C)nc2n1-c1cccc(OC2CCN(C)CC2)n1	< 10 nM
C=CCn1c(=O)c2cnc(Nc3ccc(OCC(F)(F)F)cc3)nc2n1-c1cccc(OC2CCN(C)CC2)n1	< 10 nM
C=CCn1c(=O)c2cnc(Nc3ccc(OCC(F)(F)F)cc3)nc2n1-c1cccc(NC2CCN(C)CC2)n1	< 10 nM
C=CCn1c(=O)c2cnc(Nc3ccc4c(cnn4C)c3)nc2n1-c1cccc(OC2CCNCC2)n1	< 10 nM

Please tell me: IC50 of C=CCn1c(=O)c2cnc(Nc3ccc4c(cnn4C)c3)nc2n1-c1cccc(O[C@H]2CCNC2)n1 , system recombinant human Wee1A kinase (Homo sapiens, UniProt P30291)?
< 10 nM

State its IC50 on recombinant human Wee1A kinase (Homo sapiens, UniProt P30291): C=CCn1c(=O)c2cnc(Nc3ccc(N4CCSCC4)cc3)nc2n1-c1cccc(OC2CCN(C)CC2)n1
< 10 nM

Find IC50 (recombinant human Wee1A kinase (Homo sapiens, UniProt P30291)) for the entry C=CCn1c(=O)c2cnc(Nc3ccc(N4CCOCC4)c(C)c3)nc2n1-c1cccc(OC2CCN(C)CC2)n1
< 10 nM

----------
# experimental-target: Myt1 kinase (recombinant PMYT-1) (Homo sapiens, UniProt Q99640)
# Construct: full length PMYT-1 was expressed by baculovirus in insect cells; purchased Invitrogen A30984; host or cells: insect cells (baculovirus)
# test-protocol: Myt1 kinase binding assay (LanthaScreen Eu Kinase Binding Assay)
# experimental-conditions: 3 nM tracer 178, 2.5 nM PMYT-1, 1 nM Eu-labeled antibody; read-out: Myt1 kinase Binding IC50
# Description: To calculate the emission ratio, the acceptor/tracer emission ([…]) was divided by the antibody/donor emission ([…]) and the average of duplicate measurement was used for calculations. Data plotting, analysis of binding, and curve fitting was done using Excel add-in XLfit version 5.5.0.5 (IDBS, Guildford, United Kingdom). […] “NT” means not tested. We used a LanthaScreen Europium (Eu) Kinase Binding Assay to determine the binding affinities (IC50) of compounds to Myt1 kinase. […]
readout-type: IC50

molecule	IC50
C=CCn1c(=O)c2cnc(Nc3ccc4c(cnn4C)c3)nc2n1-c1cccc(O[C@@H]2CCN(C)[C@H](C)C2)n1 (stereo in doubt)	100 to 500 nM

Recorded IC50 of C=CCn1c(=O)c2cnc(Nc3ccc4c(cnn4C)c3)nc2n1-c1ccnc(NC2CCN(C)CC2)n1 , please.
20 to 100 nM

If you can, please state the reported IC50 value of C=CCn1c(=O)c2cnc(Nc3ccc4c(cnn4C)c3)nc2n1-c1cccc(O[C@@H]2CCNC2)n1 .
100 to 500 nM

IC50 for C=CCn1c(=O)c2cnc(Nc3ccc(C)nc3)nc2n1-c1cccc(OC2CCN(C)CC2)n1 ?
20 to 100 nM

----------
# experimental-target: Wee1A kinase (CDK1 Tyr15 phosphorylation in ACHN renal cell carcinoma cells) (Homo sapiens, UniProt P30291)
# Construct: pCDK1 Tyr15 immunofluorescence read-out
# Sequence (P30291 whole entry): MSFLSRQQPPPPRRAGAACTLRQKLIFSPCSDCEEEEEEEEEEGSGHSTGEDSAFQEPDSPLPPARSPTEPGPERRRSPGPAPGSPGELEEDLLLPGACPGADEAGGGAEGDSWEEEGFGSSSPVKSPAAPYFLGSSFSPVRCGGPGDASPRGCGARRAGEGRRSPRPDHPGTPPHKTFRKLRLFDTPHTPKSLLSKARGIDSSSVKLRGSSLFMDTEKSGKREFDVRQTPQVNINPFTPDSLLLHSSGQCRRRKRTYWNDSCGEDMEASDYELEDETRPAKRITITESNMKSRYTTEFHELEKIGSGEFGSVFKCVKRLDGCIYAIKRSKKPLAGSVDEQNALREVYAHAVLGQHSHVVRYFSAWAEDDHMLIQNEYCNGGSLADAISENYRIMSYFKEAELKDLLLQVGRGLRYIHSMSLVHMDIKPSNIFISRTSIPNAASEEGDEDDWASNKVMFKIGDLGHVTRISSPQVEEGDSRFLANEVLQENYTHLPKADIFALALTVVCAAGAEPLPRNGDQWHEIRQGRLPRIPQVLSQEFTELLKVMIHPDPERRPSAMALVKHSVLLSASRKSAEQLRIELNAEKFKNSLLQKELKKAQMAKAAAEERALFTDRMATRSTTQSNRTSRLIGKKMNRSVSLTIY
# test-protocol: High-content imaging of pCdk1 Y15, Wee1A kinase target engagement in ACHN cells
# Type: cell-based
# experimental-conditions: 4 h treatment, nuclear positivity for pCdk1 Y15 vs DMSO control, read-out: CDK1 Tyr15 Phosphorylation EC50
readout-type: EC50

Recorded EC50, per entry:
chemical-structure	EC50
[2H]C([2H])([2H])N1CCC(Oc2cccc(-n3c4nc(Nc5ccc6c(cnn6C)c5)ncc4c(=O)n3CC=C)n2)CC1	< 100 nM
C=CCn1c(=O)c2cnc(Nc3ccc4c(cnn4C)c3)nc2n1-c1ccnc(OC2CCNCC2)n1	100 to 500 nM
C=CCn1c(=O)c2cnc(Nc3ccc4nc(C)oc4c3)nc2n1-c1cccc(OC2CCNCC2)n1	< 100 nM
C=CCn1c(=O)c2cnc(Nc3ccc4c(cnn4C)c3)nc2n1-c1cccc(N[C@@H]2CCN(CC)C2)n1	< 100 nM
C=CCn1c(=O)c2cnc(Nc3ccc4c(cnn4CCCF)c3)nc2n1-c1cccc(OC2CCN(C)CC2)n1	< 100 nM
C=CCn1c(=O)c2cnc(Nc3ccc(Cl)cc3)nc2n1-c1cccc(N[C@H]2CCCNC2)n1	500 to 1000 nM

Return reported EC50; argument: C=CCn1c(=O)c2cnc(Nc3ccc(C#N)c(C)c3)nc2n1-c1cccc(NC2CCNCC2)n1
> 1000 nM

What EC50 value was documented for this compound, C=CCn1c(=O)c2cnc(Nc3ccc4nccn4c3)nc2n1-c1cccc(OC2CCNCC2)n1 ?
> 1000 nM

Please report the recorded EC50 for C=CCn1c(=O)c2cnc(Nc3ccc4c(ccn4C)c3)nc2n1-c1cccc(OC2CCNCC2)n1 .
< 100 nM

----------
Catalogue of pIC50 values
# experimental-target: Myt1 kinase (recombinant PMYT-1) (Homo sapiens)
# Construct: full length PMYT-1 was expressed by baculovirus in insect cells; purchased Invitrogen A30984; host or cells: insect cells (baculovirus)
# test-protocol: Myt1 kinase binding assay (LanthaScreen Eu Kinase Binding Assay)
# experimental-conditions: 3 nM tracer 178, 2.5 nM PMYT-1, 1 nM Eu-labeled antibody; read-out: Myt1 kinase Binding IC50
pIC50: −log10 of the molar value.

molecule	experimental-target	readout-type	recorded-value
CCCn1c(=O)c2cnc(Nc3ccc4c(cnn4C)c3)nc2n1-c1cccc(OC2CCNCC2)n1 [Compound 110]	Myt1 kinase (recombinant PMYT-1) (Homo sapiens)	pIC50	7.00 to 7.70

Look up pIC50 with Myt1 kinase (recombinant PMYT-1) (Homo sapiens) for this molecule: C=CCn1c(=O)c2cnc(Nc3ccc(Cl)cc3)nc2n1-c1cccc(O[C@H]2CCN(C)C2)n1 [Compound 148]
7.00 to 7.70

Any idea what pIC50 came out for C=CCn1c(=O)c2cnc(Nc3ccc4c(cnn4C)c3)nc2n1-c1cccc(O[C@H]2CCCNCC2)n1 (single isomer, unassigned) [Compound 358] on Myt1 kinase (recombinant PMYT-1) (Homo sapiens)?
6.30 to 7.00

----------
# experimental-target: Myt1 kinase (recombinant PMYT-1) (Homo sapiens, UniProt Q99640)
# Construct: full length PMYT-1 was expressed by baculovirus in insect cells; purchased Invitrogen A30984; host or cells: insect cells (baculovirus)
# Sequence (Q99640 1-499): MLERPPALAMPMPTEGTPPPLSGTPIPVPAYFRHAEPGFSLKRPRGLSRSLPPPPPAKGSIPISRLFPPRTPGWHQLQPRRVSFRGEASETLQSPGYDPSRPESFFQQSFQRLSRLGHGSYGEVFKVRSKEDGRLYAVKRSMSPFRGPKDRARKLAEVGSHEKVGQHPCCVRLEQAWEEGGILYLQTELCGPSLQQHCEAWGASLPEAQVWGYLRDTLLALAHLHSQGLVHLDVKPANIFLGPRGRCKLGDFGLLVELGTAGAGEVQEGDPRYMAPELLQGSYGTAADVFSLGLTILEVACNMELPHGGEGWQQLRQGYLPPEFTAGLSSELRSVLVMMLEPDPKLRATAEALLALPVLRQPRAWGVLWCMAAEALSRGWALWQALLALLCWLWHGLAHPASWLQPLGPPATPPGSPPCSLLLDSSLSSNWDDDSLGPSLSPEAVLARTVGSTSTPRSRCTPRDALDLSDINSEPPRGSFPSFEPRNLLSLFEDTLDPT
# test-protocol: Myt1 kinase binding assay (LanthaScreen Eu Kinase Binding Assay)
# experimental-conditions: 3 nM tracer 178, 2.5 nM PMYT-1, 1 nM Eu-labeled antibody; read-out: Myt1 kinase Binding IC50
IC50 values by entry

GET /values?readout=IC50&item= C=CCn1c(=O)c2cnc(Nc3ccc4nn(C(C)(C)C)cc4c3)nc2n1-c1cccc(OC2CCNCC2)n1
< 20 nM

I have this molecule here, C=CCn1c(=O)c2cnc(Nc3ccc4sncc4c3)nc2n1-c1cccc(OC2CCN(C)CC2)n1 , and I need its recorded IC50.
< 20 nM

Look up IC50 for this molecule: [2H]C([2H])([2H])c1cccc(Nc2ncc3c(=O)n(CC=C)n(-c4cccc(OC5CCN(C)CC5)n4)c3n2)c1
20 to 100 nM

Can you share its IC50? I mean this molecule: C=CCn1c(=O)c2cnc(Nc3ccc4c(cnn4C4CC4)c3)nc2n1-c1cccc(OC2CCN(C)CC2)n1
< 20 nM

Quick check: IC50 of C=CCn1c(=O)c2cnc(Nc3ccc(F)cc3)nc2n1-c1ccnc(OC2CCNCC2)n1 ?
< 20 nM

Field request: IC50 | item: C=CCn1c(=O)c2cnc(Nc3ccc(F)cc3)nc2n1-c1ccnc(NC2CCN(C)CC2)n1
100 to 500 nM

Reported IC50, molecule C=CCn1c(=O)c2cnc(Nc3ccc4c(c3)nnn4C(C)C)nc2n1-c1cccc(OC2CCNCC2)n1 : ____
< 20 nM

Reported IC50, molecule C=CCn1c(=O)c2cnc(Nc3ccc4ncccc4c3)nc2n1-c1cccc(OC2CCN(C)CC2)n1 : ____
20 to 100 nM

Value lookup for IC50; key = C=CCn1c(=O)c2cnc(Nc3ccc(N4CCOCC4)c(C)c3)nc2n1-c1cccc(OC2CCNCC2)n1
20 to 100 nM

// query IC50 value for entry C=CCn1c(=O)c2cnc(Nc3ccc(F)cc3)nc2n1-c1cccc(OC2CCCN(C)CC2)n1 (single isomer, unassigned) [Compound 372]
20 to 100 nM

Param item = C=CCn1c(=O)c2cnc(Nc3cc(C)nc(C(F)(F)F)c3)nc2n1-c1cccc(OC2CCN(C)CC2)n1 ; retrieve measured IC50.
100 to 500 nM

Entry CCCn1c(=O)c2cnc(Nc3ccc4c(cnn4C)c3)nc2n1-c1cccc(OC2CCN(C)CC2)n1 has what IC50?
20 to 100 nM

Please give the measured IC50 for this molecule: C=CCn1c(=O)c2cnc(Nc3ccc(OCC)cc3)nc2n1-c1cccc(OC2CCNCC2)n1
20 to 100 nM

For the molecule C=CCn1c(=O)c2cnc(Nc3ccc(OC(F)(F)F)c(C)c3)nc2n1-c1cccc(NC2CCNCC2)n1 , what IC50 is on record?
100 to 500 nM

Need IC50 of C=CCn1c(=O)c2cnc(Nc3ccc(N4CCOCC4)c(C)c3)nc2n1-c1cccc(OC2CCN(C)CC2)n1 , thanks.
< 20 nM
